Target: human CXCR3 (N-delta 4) (Homo sapiens, UniProt P49682)
Construct: CD8 leader (N); Flag; expressed in transfected cells; membranes prepared
Test: Human CXCR3 (N-delta 4) Scintillation Proximity Assay (SPA), [125I] IP-10 binding to Ba/F3-hCXCR3 membranes
Conditions: IC50 rating, Table 1; read-out: IC50
measurement.name: IC50

Field IC50 (system: human CXCR3 (N-delta 4) (Homo sapiens, UniProt P49682)) for entry "CC[C@H]1CN(c2nc(N)c(C(=O)NNC(C)=O)nc2Cl)CCN1C1CCN(Cc2ccc(Cl)cc2)CC1" = 25 to 100 nM

Field IC50 (system: human CXCR3 (N-delta 4) (Homo sapiens, UniProt P49682)) for entry "CC[C@H]1CN(c2nc(N)c(C(=O)NCCOCCO)nc2Cl)CCN1C1CCN(C(=O)c2ccc(Cl)cc2)CC1" = > 100 nM

Field IC50 (system: human CXCR3 (N-delta 4) (Homo sapiens, UniProt P49682)) for entry "CC[C@H]1CN(c2nc(N)c(C(=O)NCCO)nc2Cl)CCN1C1CCN(C(=O)c2ccc(Cl)cc2OC)CC1" = > 100 nM

Field IC50 (system: human CXCR3 (N-delta 4) (Homo sapiens, UniProt P49682)) for entry CC[C@H]1CN(c2nc(N)c(C(N)=O)nc2Cl)CCN1C1CCN(Cc2ccc(Cl)cc2C2NC(=O)NC2=O)CC1 (stereo partly shown) [compound 43] = > 100 nM

###

Exercise: for every item that follows, state its recorded IC50.
Molecular target: human CXCR3 (N-delta 4) (Homo sapiens)
Construct: CD8 leader (N); Flag; expressed in transfected cells; membranes prepared
Test: Human CXCR3 (N-delta 4) Scintillation Proximity Assay (SPA), [125I] IP-10 binding to Ba/F3-hCXCR3 membranes
Settings: IC50 rating, Table 1; read-out: IC50

Lookup result for "CC[C@H]1CN(c2nc(N)c(C(=O)NC3CC3)nc2Cl)CCN1C1CCN(Cc2ccc(C#N)cc2OCCO)CC1" ; measured IC50: < 25 nM

Lookup result for "CC[C@H]1CN(c2nc(N)c(C(=O)N[C@@H](C)CO)nc2Cl)CCN1C1CCN(C(=O)c2ccc(Cl)cc2)CC1" ; measured IC50: 25 to 100 nM

Lookup result for "CC[C@H]1CN(c2nc(N)c(C(=O)NCCO)nc2Cl)CCN1C1CCN(Cc2ccc(OC(F)(F)F)cc2O)CC1" ; measured IC50: < 25 nM

Lookup result for "CC[C@H]1CN(c2nc(N)c(C(=O)NCCO)nc2Cl)CCN1C1CCN(Cc2ccc(F)cc2)CC1" ; measured IC50: < 25 nM

Lookup result for "CC[C@H]1CN(c2nc(N)c(C(=O)OC)nc2Cl)CCN1C1CCN(Cc2ccc(C#N)cc2O)CC1" ; measured IC50: > 100 nM

Lookup result for "CC[C@H]1CN(c2nc(N)c(C(N)=O)nc2Cl)CCN1C1CCN(Cc2ccc(Cl)cc2[C@H](O)C(N)=O)CC1" ; measured IC50: < 25 nM

###

Exercise: for every item that follows, state its recorded pIC50.
Molecular target: human CXCR3 (N-delta 4) (Homo sapiens, UniProt P49682)
Construct: CD8 leader (N); Flag; expressed in transfected cells; membranes prepared
Assay: Human CXCR3 (N-delta 4) Scintillation Proximity Assay (SPA), [125I] IP-10 binding to Ba/F3-hCXCR3 membranes
Settings: IC50 rating, Table 1; read-out: IC50
pIC50: −log10 of the molar value.

Lookup result for CC[C@H]1CN(c2ncc(C(N)=O)nc2Cl)CCN1C1CCN(Cc2ccc(Cl)cc2[C@H](O)C(N)=O)CC1 [compound 285] ; measured pIC50: > 7.60

Lookup result for "CC[C@H]1CN(c2nc(N)c(C(=O)O)nc2Cl)CCN1C1CCN(Cc2ccc(Cl)cc2)CC1" ; measured pIC50: < 7.00

Lookup result for "CC[C@H]1CN(c2nc(N)c(C(N)=O)nc2Cl)CCN1C1CCN(Cc2ccc(Cl)cc2[C@H](O)C(=O)NC)CC1" ; measured pIC50: > 7.60

Lookup result for "CC[C@H]1CN(c2nc(N)c(C(=O)NC)nc2Cl)CCN1C1CCN([C@@H](C(=O)NC)c2ccc(Cl)cc2)CC1" ; measured pIC50: 7.00 to 7.60

Lookup result for "CC[C@H]1CN(c2nc(N)c(C(=O)NC3CC3)nc2Cl)CCN1C1CCN(Cc2ccc(Cl)cc2C(=O)OC)CC1" ; measured pIC50: > 7.60

Lookup result for CC[C@H]1CN(c2nc(N)c(C(=O)N[C@@H](CO)C(C)O)nc2Cl)CCN1C1CCN(C(=O)c2ccc(Cl)cc2)CC1 (some centres unmarked) ; measured pIC50: < 7.00

Lookup result for "CC[C@H]1CN(c2nc(N)c(C(=O)NC3CC3)nc2C)[C@H](C)CN1C1CCN(C(=O)c2ccc(Cl)cc2)CC1" ; measured pIC50: > 7.60

Lookup result for CC[C@H]1CN(c2nc(N)c(C(=O)NC3CC3)nc2Cl)CCN1C1CCN(C(CCNC(=O)OC(C)(C)C)c2ccc(Cl)cc2)CC1 (some centres unmarked) ; measured pIC50: < 7.00

Lookup result for "CC[C@H]1CN(c2nc(N)c(C(N)=O)nc2Cl)CCN1C1CCN(Cc2ccc(Cl)cc2CC(=O)NC)CC1" ; measured pIC50: 7.00 to 7.60

Lookup result for "CC[C@H]1CN(c2nc(N)c(C(N)=O)nc2Cl)CCN1C1CCN(Cc2ccc(Cl)cc2CC(C)(C)O)CC1" ; measured pIC50: 7.00 to 7.60

Lookup result for "CC[C@H]1CN(c2ncc(C(=O)NC3CC3)nc2C)CCN1C1CCN(C(=O)c2ccc(F)cc2)CC1" ; measured pIC50: > 7.60

###

Exercise: for every item that follows, state its recorded IC50.
Target: human CXCR3 (N-delta 4) (Homo sapiens)
Construct: CD8 leader (N); Flag; expressed in transfected cells; membranes prepared
Sequence (P49682 5-368 limits assumed): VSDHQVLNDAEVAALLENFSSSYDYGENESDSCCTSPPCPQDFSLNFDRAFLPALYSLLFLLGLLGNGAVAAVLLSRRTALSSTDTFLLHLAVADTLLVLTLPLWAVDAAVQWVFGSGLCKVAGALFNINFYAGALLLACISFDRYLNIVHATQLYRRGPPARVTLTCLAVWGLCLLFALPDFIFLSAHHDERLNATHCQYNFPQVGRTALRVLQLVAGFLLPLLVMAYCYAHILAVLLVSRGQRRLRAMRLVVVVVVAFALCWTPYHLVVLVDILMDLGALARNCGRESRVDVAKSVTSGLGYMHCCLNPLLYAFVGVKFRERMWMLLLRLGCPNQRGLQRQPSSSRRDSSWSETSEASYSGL
Test: Human CXCR3 (N-delta 4) Scintillation Proximity Assay (SPA), [125I] IP-10 binding to Ba/F3-hCXCR3 membranes
Details: IC50 rating, Table 1; read-out: IC50

Field IC50 (system: human CXCR3 (N-delta 4) (Homo sapiens)) for entry "CC[C@H]1CN(c2nc(N)c(C(=O)NCCO)nc2Cl)CCN1C1CCN(Cc2ccc(C#N)cc2OCCN2CCCC2=O)CC1" = > 100 nM

Field IC50 (system: human CXCR3 (N-delta 4) (Homo sapiens)) for entry "CCNC(=O)c1nc(Cl)c(N2CCN(C3CCN(Cc4ccc(Cl)cc4F)CC3)[C@@H](CC)C2)nc1N" = < 25 nM

Field IC50 (system: human CXCR3 (N-delta 4) (Homo sapiens)) for entry "CC[C@H]1CN(c2nc(N)c(C(=O)NCCO)nc2Cl)CCN1C1CCN(Cc2ccc(OC(F)(F)F)cc2)CC1" = < 25 nM

Field IC50 (system: human CXCR3 (N-delta 4) (Homo sapiens)) for entry "CC[C@H]1CN(c2nc(N)c(C(N)=O)nc2Cl)CCN1C1CCN(Cc2ccc(Cl)cc2CC(=O)N2CC[C@@H](O)C2)CC1" = > 100 nM

Field IC50 (system: human CXCR3 (N-delta 4) (Homo sapiens)) for entry "CC[C@H]1CN(c2nc(N)c(C(=O)NCCO)nc2Cl)CCN1C1CCN(Cc2ccc(C#CC(C)(C)O)cc2)CC1" = < 25 nM

Field IC50 (system: human CXCR3 (N-delta 4) (Homo sapiens)) for entry "CC[C@H]1CN(c2nc(N)c(C(=O)NC)nc2Cl)CCN1C1(C)CCN(Cc2ccc(Cl)cc2C(=O)NC)CC1" = > 100 nM

Field IC50 (system: human CXCR3 (N-delta 4) (Homo sapiens)) for entry "CC[C@H]1CN(c2nc(N)c(C(=O)NC[C@@H](C)O)nc2Cl)CCN1C1CCN(Cc2ccc(Cl)cc2CC#N)CC1" = < 25 nM

###

Molecular target: human CXCR3 (N-delta 4) (Homo sapiens)
Construct: CD8 leader (N); Flag; expressed in transfected cells; membranes prepared
Test: Human CXCR3 (N-delta 4) Scintillation Proximity Assay (SPA), [125I] IP-10 binding to Ba/F3-hCXCR3 membranes
Conditions: IC50 rating, Table 1; read-out: IC50
Exercise: for every item that follows, state its recorded IC50.

Lookup result for "CC[C@H]1CN(c2nc(N)c(C(=O)N3CCN(C(=O)OC(C)(C)C)CC3)nc2Cl)CCN1C1CCN(Cc2ccc(Cl)cc2)CC1" ; measured IC50: > 0.1 µM

Lookup result for "CC[C@H]1CN(c2nc(N)c(C(N)=O)nc2Cl)CCN1C1CCN(Cc2ccc(-n3cccn3)cc2)CC1" ; measured IC50: 0.025 to 0.1 µM

Lookup result for "CC[C@H]1CN(c2ncc(C(=O)NC)nc2C)CCN1C1CCN(C(=O)c2ccc(F)cc2)CC1" ; measured IC50: < 0.025 µM

Lookup result for CC[C@H]1CN(c2nc(N)c(C(N)=O)nc2Cl)CCN1C1CCN(Cc2ccc(Cl)cc2C(O)CO)CC1 (some centres unmarked) ; measured IC50: < 0.025 µM

Lookup result for "CC[C@H]1CN(c2nc(N)c(C(=O)NCCNc3ncccn3)nc2Cl)CCN1C1CCN(Cc2ccc(Cl)cc2)CC1" ; measured IC50: < 0.025 µM

Lookup result for "CC[C@H]1CN(c2nc(N)c(C(N)=O)nc2Cl)CCN1C1CCN(Cc2ccc(Cl)cc2C(=N)N)CC1" ; measured IC50: < 0.025 µM

Lookup result for "CC[C@H]1CN(c2nc(N)c(C(=O)NCC(F)(F)F)nc2Cl)CCN1C1CCN(Cc2ccc(Cl)cc2)CC1" ; measured IC50: < 0.025 µM

Lookup result for CC[C@H]1CN(c2nc(N)c(C(=O)NCCNC(N)=O)nc2Cl)CCN1C1CCN(C(CO)c2ccc(C#N)cc2)CC1 (some centres unmarked) ; measured IC50: 0.025 to 0.1 µM

Lookup result for "CC[C@H]1CN(c2nc(N)c(C(=O)NCCC#N)nc2Cl)CCN1C1CCN(Cc2ccc(C#N)cc2)CC1" ; measured IC50: < 0.025 µM

Lookup result for "CC[C@H]1CN(c2nc(N)c(C(=O)NCCO)nc2Cl)CCN1C1CCN([C@@H](CO)c2ccc(Cl)cc2)CC1" ; measured IC50: < 0.025 µM

Lookup result for "CC[C@H]1CN(c2nc(N)c(C(=O)NCCNS(=O)(=O)C(F)(F)F)nc2Cl)CCN1C1CCN(Cc2ccc(F)c(F)c2N2CC[C@@H](O)C2)CC1" ; measured IC50: < 0.025 µM

Lookup result for "CC[C@H]1CN(c2nc(N)c(C(=O)NC(=N)NC)nc2Cl)CCN1C1CCN(C(=O)c2ccc(C#N)cc2)CC1" ; measured IC50: < 0.025 µM

Lookup result for "CC[C@H]1CN(c2nc(N)c(C(=O)NC)nc2Cl)CCN1C1CCN(Cc2ccc(-n3cccn3)cc2)CC1" ; measured IC50: < 0.025 µM

Lookup result for "CC[C@H]1CN(c2nc(N)c(C(=O)NCCNS(C)(=O)=O)nc2Cl)CCN1C1CCN(Cc2ccc(Cl)cc2C#N)CC1" ; measured IC50: 0.025 to 0.1 µM
